B1: mRNA-splicing (parent)
chain: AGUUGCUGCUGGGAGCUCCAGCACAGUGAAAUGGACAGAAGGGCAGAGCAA

variants of: B1; experiment: exon inclusion enrichment index; higher = more inclusion; WT1 exon 5 minigene, HEK293
ENDPOINT_LABEL: exon inclusion enrichment index
Write the number on its own, no unit after it.

Reference set, count: 5
C6A U7C C9A U10C G41C G42A | 2.74
C6A U7A C9A U10A U27C G28A | 0.886
G5U G8U C9U C36G A37G | 0.0302
U10G G11C | 2.98
G5C C6A U7C G8A U10A U32A G33C | 0.174

Ask: Reported exon inclusion enrichment index for U4G G5A C6G U7C U10C : what is it?
Reply: 2.22
